Hey, just so you know, these numbers are from ChEMBL document CHEMBL4513216.

Test system: Plasmodium berghei
Assay: Screen against P. berghei liver stage (PbLuc), transformed with Luciferase, at 10uM
Type: functional, HepG2
Conditions: tested at 10 uM
Among all 69,000 compounds or so, about 8,600 (12%) showed an effect of 50% or more. The entries come from a sample that favours strong results as a whole.
For each entry below, report its INHIBITION value.
Report the value in % with no unit label.

Input Cc1nc(CN2CCC(c3cc(N4CCCC4)ncn3)CC2)cs1 . Output INHIBITION: -37.9

Consider O=C(Cc1ccc(O)cc1)N1CCCC(O)(CN2CCOCC2)CC1 (stereo not given) . Its measured INHIBITION is 30.4

The measured INHIBITION associated with N#Cc1cccc(CNCCNC(=O)Cc2cccc(F)c2)c1 reads 29.2

For reference, reported INHIBITION for CCS(=O)(=O)N1CCCN(CCCOC)CC1 stands at 63

Record CCCNC(=O)c1ccc(S(=O)(=O)NC2(COC)CCCC2)cc1 , field INHIBITION: 56.3

// sample COc1cccc(CN2CCCC2c2cccc(F)c2)c1OC (stereo not given) , its INHIBITION was 1.45

Lab book: INHIBITION of CCCS(=O)(=O)N1CCCN(CCCOC)CC1 noted as -13.6

Looking up CCCNC(=O)c1ccc(S(=O)(=O)NCC2(COC)CCCC2)cc1 , I found its INHIBITION recorded as 89.7

INHIBITION reading for CCCc1nnsc1C(=O)NCC(O)c1ccoc1 (stereo not given) : 15.5

Lab note: measured INHIBITION of COCC(=O)NC(CC(C)C)c1nc2cccnc2n1C (stereo not given) was -0.232

Sure, the documented INHIBITION for COCCN1CCCC12CCN(C(=O)CC1CCCC1)CC2 is 32.4

Documented INHIBITION of COCCOc1ccnc(-c2noc([C@@H]3CCCN3CC3CC3)n2)c1 : 18.4

Entry CCOCc1nc(N2CCOCC2)sc1C(=O)NCCCc1ccco1 , INHIBITION reported as 24.5

Form: molecule = CCCS(=O)(=O)N1CCN(CCCO)CC1 ; INHIBITION = 11.5

// field: INHIBITION; key: O=C(O)CSc1nnc(-c2cn[nH]c2)n1-c1ccccc1Cl ; value = 9.87

INHIBITION measured on CC(C)S(=O)(=O)C(C)C(=O)NCc1ccccc1COc1ccccc1 (stereo not given) = -4.12

# molecule Cc1cccc(C(=O)N2C[C@@H]3C(CC(=O)N4CCCC4)[C@@H]3C2)n1 (stereo not given in full) ; its INHIBITION = -2.35

Reported INHIBITION of O=C(O)CSc1nnc(-c2cn[nH]c2)n1-c1ccccc1C(F)(F)F : 90.8

GET /value?item= CNS(=O)(=O)c1ccc(C(=O)NCCNc2ncccn2)cc1 &field=INHIBITION returns 33

For reference, reported INHIBITION for CC(C)NC(=O)[C@H]1C[C@H]2CN(C(=O)NCc3ccccc3)C[C@@H]1O2 stands at -43.8

So, Cc1noc(CN(Cc2cccc(C#N)c2)Cc2cccs2)n1 ? Its INHIBITION was 1.98

Item: Cc1ocnc1C(=O)N1CCCN(Cc2cscn2)CC1 | INHIBITION: 35.3

response.value for CCOCCN1CCN(c2ccc(CN(C)C)cn2)CC1 (field: INHIBITION) = 7.24

Recorded INHIBITION (molecule Cc1ncnc2c1CCN(Cc1ccc3c(c1)OCO3)CC2 ): 41.8

INHIBITION reading for CCc1noc(C(C)N2CCC(O)CC2)n1 (stereo not given) : 37.9
